Source listed as patent US20230287082A1.

# Tested system: human NKp30 (human) (UniProt O14931)
# Sequence (O14931 19-135 limits assumed): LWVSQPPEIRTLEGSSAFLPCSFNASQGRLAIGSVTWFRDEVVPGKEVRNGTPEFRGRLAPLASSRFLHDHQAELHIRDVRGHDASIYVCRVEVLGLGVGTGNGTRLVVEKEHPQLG
# Protocol text: BLI, immunoligand on anti-hFc tip
pKd: −log10 of the molar value.
Reported pKd values for a set of binders

{"Binder": "ΔB7-H6_S2#12-SEED-PGLALA (bispecific antibody, part only; not given: SEED Fc chains and hu225 Fab, part only) chain, part: DLKVEMMAGGTQITPLNDNVTIFCNIFYSQPLNITHMGITWLWKSLTFDKEVKVFEFYGDHQEAFRPGAIVSPWRLKSGDASLRLPGIQLEEAGEYRCEVVVTPLKAQGTVQLEVVASPAS", "pKd": 6.54}
{"Binder": "ΔB7-H6_S3#2-SEED-PGLALA (bispecific antibody, part only; not given: SEED Fc chains and hu225 EGFR Fab, part only) chain, part: DLKVEMMAGGTQITPLNDNVTIFCNIFYSQPLNITWMGITWFWKSLTFDKEVKVFEFWGDHQEAFRPGAIVSPWRLKSGDASLRLPGIQLEEAGEYRCEVVVTPYKAQGTVQLEVVASPAS", "pKd": 7.93}
{"Binder": "ΔB7-H6_S2#13-SEED-PGLALA (bispecific antibody, part only; not given: SEED Fc chains and hu225 Fab, part only) chain, part: DLKVEMMAGGTQITPLNDNVTIFCNIFYSQPLNITSMGITWFWKSLTFDKEVKVFEFWGDHQEAFRPGAIVSPWRLKSGDASLRLPGIQLEEAGEYRCEVVVTPYKAQGTVQLEVVASPAS", "pKd": 6.69}
{"Binder": "ΔB7-H6_S3#20-SEED-PGLALA (bispecific antibody, part only; not given: SEED Fc chains and hu225 Fab, part only) chain, part: DLKVEMMAGGTQITPLNDNVTIFCNIFYSQPLNITHMGITWFWKSLTFDKEVKVFEFWGDHQEAFRPGAIVSPWRLKSGDASLRLPGIQLEEAGEYRCEVFVTPLKAQGTVQLEVVASPAS", "pKd": 7.21}
{"Binder": "ΔB7-H6_S2#6-SEED-PGLALA (bispecific antibody, part only; not given: SEED Fc chains and hu225 EGFR Fab, part only) chain, part: DLKVEMMAGGTQITPLNDNVTIFCNIFYFQPLNITEMGITWFWKSLTFDKEVKVFEFFGDHQEAFRPGAIVSPWRLKSGDASLRLPGIQLEEAGEYRCEVIVTPLKAQGTVQLEVVASPAS", "pKd": 6.55}
{"Binder": "ΔB7-H6_S3#9-SEED-PGLALA (bispecific antibody, part only; not given: SEED Fc chains and hu225 EGFR Fab, part only) chain, part: DLKVEMMAGGTQITPLNDNVTIFCNIFYSQPLNITHMGITWFWKSLTFDKEVKVFEFFGDHQEAFRPGAIVSPWRLKSGDASLRLPGIQLEEAGEYRCEVVVTPYKAQGTVQLEVVASPAS", "pKd": 7.24}
{"Binder": "ΔB7-H6_S3#31-SEED-PGLALA (bispecific antibody, part only; not given: SEED Fc chains and hu225 EGFR Fab, part only) chain, part: DLKVEMMAGGTQITPLNDNVTIFCNIFYSQPLNITIMGITWFWKSLTFDKEVKVFEFYGDHQEAFRPGAIVSPWRLKSGDASLRLPGIQLEEAGEYRCEVVVTPLKAQGTVQLEVVASPAS", "pKd": 7.36}
{"Binder": "ΔB7-H6_S3#17-SEED-PGLALA (bispecific antibody, part only; not given: SEED Fc chains and hu225 EGFR Fab, part only) chain, part: DLKVEMMAGGTQITPLNDNVTIFCNIFYSQPLNITSMGITWFWKSLTFDKEVKVFEFYGDHQEAFRPGAIVSPWRLKSGDASLRLPGIQLEEAGEYRCEVFVTPLKAQGTVQLEVVASPAS", "pKd": 7.23}
{"Binder": "ΔB7-H6_S2#14-SEED-PGLALA (bispecific antibody, part only; not given: SEED Fc chains and hu225 Fab, part only) chain, part: DLKVEMMAGGTQITPLNDNVTIFCNIFYSQPLNITTMGITWFWKSLTFDKEVKVFEFFGDHQEAFRPGAIVSPWRLKSGDASLRLPGIQLEEAGEYRCEVVVTPYKAQGTVQLEVVASPAS", "pKd": 6.66}
{"Binder": "ΔB7-H6_S3#8-SEED-PGLALA (bispecific antibody, part only; not given: SEED Fc chains and hu225 EGFR Fab, part only) chain, part: DLKVEMMAGGTQITPLNDNVTIFCNIFYSQPLNITHMGITWFWKSLTFDKEVKVFEFWGDHQEAFRPGAIVSPWRLKSGDASLRLPGIQLEEAGEYRCEVIVTPLKAQGTVQLEVVASPAS", "pKd": 7.09}
{"Binder": "ΔB7-H6_S3#7-SEED-PGLALA (bispecific antibody, part only; not given: SEED Fc chains and hu225 Fab, part only) chain, part: DLKVEMMAGGTQITPLNDNVTIFCNIFYSQPLNITHMGITWFWKSLTFDKEVKVFEFYGDHQEAFRPGAIVSPWRLKSGDASLRLPGIQLEEAGEYRCEVVVTPYKAQGTVQLEVVASPAS", "pKd": 6.96}
{"Binder": "ΔB7-H6_S2#10-SEED-PGLALA (bispecific antibody, part only; not given: SEED Fc chains and hu225 EGFR Fab, part only) chain, part: DLKVEMMAGGTQITPLNDNVTIFCNIFYSQPLNITLMGITWFWKSLTFDKEVKVFEFWGDHQEAFRPGAIVSPWGLKSGDASLRLPGIQLEEAGEYRCEVVVTPLKAQGTVQLEVVASPAS", "pKd": 6.73}
{"Binder": "ΔB7-H6_S3#29-SEED-PGLALA (bispecific antibody, part only; not given: SEED Fc chains and hu225 EGFR Fab, part only) chain, part: DLKVEMMAGGTQITPLNDNVTIFCNIFYSQPLNITVMGITWFWKSLTFDKEVKVFEFWGDHQEAFRPGAIVSPWRLKSGDASLRLPGIQLEEAGEYRCEVIVTPYKAQGTVQLEVVASPAS", "pKd": 7.61}
{"Binder": "ΔB7-H6_S2#5-SEED-PGLALA (bispecific antibody, part only; not given: SEED Fc chains and hu225 Fab, part only) chain, part: DLKVEMMAGGTQITPLNDNVTIFCNIFYSQPLNITSMGITWLWKSLTFDKEVKVFEFWGDHQEAFRPGAIVSPWRLKSGDASLRLPGIQLEEAGEYRCEVFVTPYKAQGTVQLEVVASPAS", "pKd": 6.60}
{"Binder": "ΔB7-H6_S3#22-SEED-PGLALA (bispecific antibody, part only; not given: SEED Fc chains and hu225 Fab, part only) chain, part: DLKVEMMAGGTQITPLNDNVTIFCNIFYSQPLNITEMGITWFWKSLTFDKEVKVFEFWGDHQEAFRPGAIVSPWRLKSGDASLRLPGIQLEEAGEYRCEVVVTPYKAQGTVQLEVVASPAS", "pKd": 7.02}
